SYSTEM_UNDER_TEST: a4(Q878R)b7 (human) (UniProt P13612)
Sequence (P13612 34-1032, chain 1 of 2): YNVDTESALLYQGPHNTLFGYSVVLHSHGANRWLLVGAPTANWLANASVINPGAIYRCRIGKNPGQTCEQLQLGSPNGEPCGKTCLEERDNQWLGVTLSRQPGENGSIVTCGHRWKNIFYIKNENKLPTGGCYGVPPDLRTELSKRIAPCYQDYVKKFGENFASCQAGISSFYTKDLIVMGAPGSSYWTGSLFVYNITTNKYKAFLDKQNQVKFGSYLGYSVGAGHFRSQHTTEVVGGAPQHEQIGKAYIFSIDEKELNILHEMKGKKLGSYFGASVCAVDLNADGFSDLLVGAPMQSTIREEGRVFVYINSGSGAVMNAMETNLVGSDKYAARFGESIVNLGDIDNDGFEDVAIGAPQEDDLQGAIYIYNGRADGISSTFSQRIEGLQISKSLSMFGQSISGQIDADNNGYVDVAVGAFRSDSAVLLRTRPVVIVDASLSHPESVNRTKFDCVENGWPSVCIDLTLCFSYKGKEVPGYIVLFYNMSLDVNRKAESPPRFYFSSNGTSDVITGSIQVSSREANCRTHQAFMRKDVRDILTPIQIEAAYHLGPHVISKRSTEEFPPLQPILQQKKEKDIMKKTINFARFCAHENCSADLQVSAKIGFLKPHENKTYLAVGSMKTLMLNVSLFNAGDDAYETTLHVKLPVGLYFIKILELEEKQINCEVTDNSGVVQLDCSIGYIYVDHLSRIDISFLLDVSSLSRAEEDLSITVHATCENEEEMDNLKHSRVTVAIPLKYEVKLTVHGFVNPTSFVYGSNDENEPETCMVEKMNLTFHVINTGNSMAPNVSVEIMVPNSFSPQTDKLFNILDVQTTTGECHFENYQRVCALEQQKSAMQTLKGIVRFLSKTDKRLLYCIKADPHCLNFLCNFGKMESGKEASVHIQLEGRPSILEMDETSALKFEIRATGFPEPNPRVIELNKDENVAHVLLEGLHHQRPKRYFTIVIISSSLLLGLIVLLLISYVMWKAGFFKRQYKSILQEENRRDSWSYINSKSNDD
Sequence (P26010 20-798, chain 2 of 2, further chain): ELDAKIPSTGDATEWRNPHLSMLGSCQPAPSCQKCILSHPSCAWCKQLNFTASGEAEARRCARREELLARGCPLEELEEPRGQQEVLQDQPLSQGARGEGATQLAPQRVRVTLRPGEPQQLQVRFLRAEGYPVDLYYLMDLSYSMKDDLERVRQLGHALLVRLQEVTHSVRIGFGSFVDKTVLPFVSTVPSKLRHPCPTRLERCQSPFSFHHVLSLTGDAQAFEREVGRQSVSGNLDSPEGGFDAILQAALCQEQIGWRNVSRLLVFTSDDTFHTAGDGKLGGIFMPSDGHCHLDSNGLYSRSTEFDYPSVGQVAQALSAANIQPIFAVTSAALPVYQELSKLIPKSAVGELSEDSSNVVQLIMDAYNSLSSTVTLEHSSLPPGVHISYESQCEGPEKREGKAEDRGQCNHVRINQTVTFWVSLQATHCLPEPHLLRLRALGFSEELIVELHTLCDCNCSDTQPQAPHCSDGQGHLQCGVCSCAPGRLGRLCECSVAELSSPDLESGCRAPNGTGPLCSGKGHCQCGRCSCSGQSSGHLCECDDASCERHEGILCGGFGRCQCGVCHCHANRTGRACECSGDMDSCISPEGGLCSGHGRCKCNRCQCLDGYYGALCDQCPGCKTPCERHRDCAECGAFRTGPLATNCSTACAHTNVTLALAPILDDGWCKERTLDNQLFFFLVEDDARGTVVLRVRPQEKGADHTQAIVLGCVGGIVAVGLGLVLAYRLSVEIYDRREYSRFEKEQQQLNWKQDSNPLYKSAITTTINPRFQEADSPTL
ASSAY_DETAILS: FACS on transfected 293 cells, 1 microG/ml, PE anti-human IgG
Please go through the items and note down their fluorescence staining intensity (geometric mean).
Answer using only a numeral; do not append any unit.

The binder identified as 2F12 (antibody, V domains shown, Fully human monoclonal from XenoMouse (human IgG2 or IgG4); kappa light chain; also called 2F12K; 2F12H) VH: QVQLVQSGAEVKKPGASVKVSCKVSGYTVTDLSMHWVRQAPGKGLEWMGGFDPQDGETIYAQKFQGRVTMTEDTSTDTAYMELRSLRSEDTAVYYCTTESSSAWFDPWGQGTLVTVSS VL: DIQMTQSPSSVFASVGDRVTITCRASQGISSWLAWYQQKPGKAPNLLIYGASSLQNGVPLRFSGSGSGTDFTLTISSLQPEDFATYYCQQANSFPWTFGQGTKVEIK registered its fluorescence staining intensity (geometric mean) at 73

The binder identified as 18A11 (antibody, V domains shown, Fully human monoclonal from XenoMouse (human IgG2 or IgG4); kappa light chain; also called 18A11K; 18A11H) VH: QVQLVQSGAEVKKPGASVKVSCKVSGYTLSDLSIHWVRQAPGKGLEWMGGFDPQDGETIYAQKFQGRVTMTEDTSTDTAYMELSSLKSEDTAVYYCATGSSSSWFDPWGQGTLVTVSS VL: DIQMTQSPSSVSASVGDRVTITCRASQGISSWLAWYQQKPGKAPKLLIYGASNLESGVPSRFSGSGSGTDFTLTISSLQPEDFANYYCQQANSFPWTFGQGTKVEIK registered its fluorescence staining intensity (geometric mean) at 56
